pKd: −log10 of the molar value.
Observed pKd values for SyoA (Amycolatopsis thermoflava, UniProt A0AAX7FLX8) are listed in what follows.
readout.type: pKd

a = COc1cccc(OC)c1O
b = COc1cc(C=O)cc(OC)c1O
Inquiry: # argmax over pKd for candidates a and b Let me know the label of the one you choose.
Reply text: a
(a: 4.80, b: 3.47)
